- assayProtocol: NCI Yeast Anticancer Drug Screen. Data for the mec2-1 strain (AID 157)
- testContext: S. cerevisiae mec2-1 strain, at 50.0 µM, stronger effect = higher value
This is part of a sample that, as a whole, favours compounds with a hit. Of some 79,000 tested, about 15% had one in any assay.
Quick rule: growth inhibition of at least -10% means satisfied, below that means not satisfied.

Examples from the recorded data:
{"compound": "CC(NCCNC(C)c1ccccc1)c1ccccc1 (stereo not drawn)", "assignedLabel": "not satisfied"}
{"compound": "O=C1CCC2(c3ccc(Cl)cc3)SCCN12 (stereo not drawn)", "assignedLabel": "not satisfied"}
{"compound": "CC(C)(C)c1cc2ccc(C(N)=O)cc2c(=O)[nH]1", "assignedLabel": "not satisfied"}
{"compound": "O=C(O)CCC(=O)OCc1ccccc1", "assignedLabel": "satisfied"}
{"compound": "CC1COC(c2ccc(Cl)cc2)O1 (stereo not drawn)", "assignedLabel": "satisfied"}

Hi team, for CCC(CCCN)Nc1cc(OC)cc2c(C)ccnc12 (stereo not drawn) , is the recorded growth inhibition at or above -10%?
satisfied

Hi team, for "N#Cc1c(N)[nH]c(=S)c(C#N)c1-c1ccccc1" , is the recorded growth inhibition at or above -10%?
satisfied

Hi team, for "c1ccc2c(c1)c1ccccc1c1c3ccccc3c3ccccc3c21" , is the recorded growth inhibition at or above -10%?
not satisfied

Hi team, for "CCN(CC)CCCNc1cc(O)cc2cccnc12" , is the recorded growth inhibition at or above -10%?
satisfied

Hi team, for O=C(O)C12C3CCC(CC3)C1(C(=O)O)C1CCC2C1 (stereo not drawn) , is the recorded growth inhibition at or above -10%?
not satisfied

Hi team, for O=[N+]([O-])C(Cl)C(Cl)C(Cl)=C(Cl)Cl (stereo not drawn) , is the recorded growth inhibition at or above -10%?
satisfied

Hi team, for CC(=O)OCC1OC(n2cnc3c(Cl)nc(Cl)nc32)CC1OC(C)=O (stereo not drawn) , is the recorded growth inhibition at or above -10%?
satisfied

====

- assayProtocol: NCI Yeast Anticancer Drug Screen. Data for the sgs1 mgt1 strain (AID 161);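 also: 0% = growth of cultures given vehicle only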
- testContext: S. cerevisiae sgs1 mgt1 strain, at 50.0 µM
This is part of a sample that, as a whole, favours compounds with a hit. Of some 79,000 tested, about 15% had one in any assay. Activity calls are given as the source filed them. Rule as the data show it: active = growth inhibition above about 70%; inactive = the rest.
Write down one outcome, taken from active, inactive

Examples from the recorded data:
{"molecule": "CC(=O)N(C)c1ccc(NC(=O)Cc2ccccc2)cc1", "assignedLabel": "inactive"}
{"molecule": "ClCCCCCc1c2nc(c(CCCCCCl)c3ccc([nH]3)c(CCCCCCl)c3ccc([nH]3)c(CCCCCCl)c3nc1C=C3)C=C2", "assignedLabel": "inactive"}

Can you look up the reported call for COC1CCC(/C=C(\C#N)C2CCC(OC)CC2)CC1 (configuration not stated) for me?
inactive

Can you look up the reported call for "CCCCCCCc1ccccc1" for me?
inactive

Can you look up the reported call for "CN(c1ccccc1)c1cc2nc3ccccc3nc2cc1O" for me?
inactive

Can you look up the reported call for "O=C(OCc1ccccc1CN1CCCC1)c1ccc(Br)cc1" for me?
inactive

Can you look up the reported call for "COc1ccc(/C=C2\CCN(C(C)=O)C2=O)cc1" for me?
inactive

====

- assayProtocol: NCI Yeast Anticancer Drug Screen. Data for the rad50 strain (AID 155);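 also: 0% = growth of vehicle-only cultures of the same strain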
- testContext: S. cerevisiae rad50 strain growth inhibition; at 50.0 µM; stronger effect = higher value
About 79,000 compounds went through this panel and 15% of them were active in at least one assay; those are over-represented in the sample as a whole.
Each entry below lists one item and its recorded growth inhibition value.
Quick reminder: number only, in %, skip the unit.

Worked set:
{"molecule": "Cc1ccccc1NC(=O)NN", "readoutName": "growth inhibition", "resultUnit": "%", "quantitativeResult": -32.1}
{"molecule": "O=C(OCc1ccccc1CN1CCCC1)c1ccc(Br)cc1", "readoutName": "growth inhibition", "resultUnit": "%", "quantitativeResult": 11}
{"molecule": "CSC1=Nc2ccccc2N(C)c2c1c(-c1ccccc1)nn2C", "readoutName": "growth inhibition", "resultUnit": "%", "quantitativeResult": 34.8}
{"molecule": "CCCCCCC(/C=N/Nc1ccccn1)=C\\c1ccccc1", "readoutName": "growth inhibition", "resultUnit": "%", "quantitativeResult": -5.05}
{"molecule": "CC(C)C(CC(=O)O)C(=O)O (stereo unspecified)", "readoutName": "growth inhibition", "resultUnit": "%", "quantitativeResult": 3.8}

Give a short answer stating reported growth inhibition for "CCCC(=O)NC(Nc1ccc(S(=O)(=O)Nc2ccc(OC)nn2)cc1)(C(F)(F)F)C(F)(F)F" .
1.55
